- protocol text: Half life of compound in human plasma in presence of CYP3A inhibitor ritonavir
- Assay type: ADME, organism-based
- particulars: with ritonavir (CYP3A inhibitor)

{"smiles record": "Cc1cnc(C(=O)N[C@H]2CCCCC/C=C\\[C@@H]3C[C@@]3(C(=O)NS(=O)(=O)C3CC3)NC(=O)[C@@H]3C[C@@H](Oc4nc5ccccc5c5ccccc45)CN3C2=O)cn1.O.O", "half-life, h": 5.5}

====

- assayed system: Vascular endothelial growth factor receptor 2 (Homo sapiens, UniProt P35968)
- Sequence (P35968 whole entry): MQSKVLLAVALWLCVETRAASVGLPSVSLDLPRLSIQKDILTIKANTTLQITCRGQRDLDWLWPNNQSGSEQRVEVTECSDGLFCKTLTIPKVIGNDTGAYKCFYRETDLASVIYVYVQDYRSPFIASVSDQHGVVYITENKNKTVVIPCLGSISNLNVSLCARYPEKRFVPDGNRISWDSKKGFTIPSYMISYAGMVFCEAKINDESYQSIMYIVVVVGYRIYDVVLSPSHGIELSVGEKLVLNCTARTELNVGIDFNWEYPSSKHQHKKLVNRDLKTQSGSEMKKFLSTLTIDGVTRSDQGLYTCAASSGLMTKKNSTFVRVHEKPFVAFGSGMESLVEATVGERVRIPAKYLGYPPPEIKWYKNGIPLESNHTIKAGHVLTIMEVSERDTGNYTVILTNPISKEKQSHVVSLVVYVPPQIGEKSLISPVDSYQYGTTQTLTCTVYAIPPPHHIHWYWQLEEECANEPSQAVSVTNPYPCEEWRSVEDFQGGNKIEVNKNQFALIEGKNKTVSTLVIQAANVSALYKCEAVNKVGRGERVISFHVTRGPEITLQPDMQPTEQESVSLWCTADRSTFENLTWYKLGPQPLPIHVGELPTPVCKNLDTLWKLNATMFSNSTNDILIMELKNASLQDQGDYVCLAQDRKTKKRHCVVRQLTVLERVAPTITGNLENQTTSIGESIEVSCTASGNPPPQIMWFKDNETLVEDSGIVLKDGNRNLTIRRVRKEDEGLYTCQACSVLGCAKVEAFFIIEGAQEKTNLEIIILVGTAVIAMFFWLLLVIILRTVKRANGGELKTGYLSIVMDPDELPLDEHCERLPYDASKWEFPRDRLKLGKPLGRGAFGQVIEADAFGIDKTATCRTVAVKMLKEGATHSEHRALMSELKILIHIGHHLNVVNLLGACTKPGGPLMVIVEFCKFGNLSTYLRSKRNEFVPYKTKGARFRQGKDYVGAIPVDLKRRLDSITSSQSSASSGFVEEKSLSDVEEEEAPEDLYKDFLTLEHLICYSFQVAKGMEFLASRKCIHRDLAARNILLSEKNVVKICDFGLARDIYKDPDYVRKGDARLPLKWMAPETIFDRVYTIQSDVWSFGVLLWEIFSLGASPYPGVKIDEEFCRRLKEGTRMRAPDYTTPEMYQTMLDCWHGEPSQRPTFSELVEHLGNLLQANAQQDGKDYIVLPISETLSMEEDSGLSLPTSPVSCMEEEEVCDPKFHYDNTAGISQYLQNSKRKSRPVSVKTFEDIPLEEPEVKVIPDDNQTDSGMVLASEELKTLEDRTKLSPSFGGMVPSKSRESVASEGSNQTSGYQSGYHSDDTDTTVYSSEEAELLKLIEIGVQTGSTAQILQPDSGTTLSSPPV
Structures can show the parent of a compound that is named as a salt.
property label: IC50 (nM)

{"compound": "N#CC1(c2ccc(NC(=O)c3cccnc3NCc3ccncc3)cc2)CCCC1 [RIVOCERANIB MESYLATE]", "readout value": 1}

====

- assayed system: Sodium/glucose cotransporter 2 (Homo sapiens, UniProt P31639)
- Sequence (P31639 whole entry): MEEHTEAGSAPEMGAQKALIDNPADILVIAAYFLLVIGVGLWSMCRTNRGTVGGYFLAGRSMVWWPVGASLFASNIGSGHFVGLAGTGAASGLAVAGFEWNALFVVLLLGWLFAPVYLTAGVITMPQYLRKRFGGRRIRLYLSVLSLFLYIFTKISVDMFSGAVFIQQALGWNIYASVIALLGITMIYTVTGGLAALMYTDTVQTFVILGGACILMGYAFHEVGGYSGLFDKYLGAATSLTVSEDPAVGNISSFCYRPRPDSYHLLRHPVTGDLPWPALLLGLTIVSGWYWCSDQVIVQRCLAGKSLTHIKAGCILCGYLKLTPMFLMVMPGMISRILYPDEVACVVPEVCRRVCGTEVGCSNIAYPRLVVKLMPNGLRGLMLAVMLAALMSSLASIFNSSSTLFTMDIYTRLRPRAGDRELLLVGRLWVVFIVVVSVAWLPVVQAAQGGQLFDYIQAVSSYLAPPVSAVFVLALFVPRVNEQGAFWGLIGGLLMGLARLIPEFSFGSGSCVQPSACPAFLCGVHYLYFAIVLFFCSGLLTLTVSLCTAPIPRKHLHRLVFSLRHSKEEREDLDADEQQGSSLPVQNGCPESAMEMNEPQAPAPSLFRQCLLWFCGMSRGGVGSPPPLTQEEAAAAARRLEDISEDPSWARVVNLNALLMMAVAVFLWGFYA
- protocol text: Competitive inhibition of human SGLT2 expressed in CHO-K1 cells assessed as inhibition of [14C]-alpha-methylglucoside uptake
pKi: −log10 of the molar value.

{"smiles record": "CCOc1ccc(Cc2cc([C@@H]3S[C@H](CO)[C@@H](O)[C@H](O)[C@H]3O)c(OC)cc2C)cc1", "assayed system": "Sodium/glucose cotransporter 2 (Homo sapiens, UniProt P31639)", "pKi": 8.96}
